- Assay method text: chemical genetic growth profiling, strain panel (AID 1159580);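 also: tested at 20 µM; growth read once vehicle control cultures reached saturation at 30 °C; 1 = growth at the plate median or of vehicle wells; lower values mean less growth of the strain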
- Stated conditions: S. cerevisiae deletion strains, growth OD, locus YDL074C, strain BRE1, active compounds read low
The whole screen tested about 5,500 compounds, of which about 2,000 (36%) were called active. Inconclusive results (about 18%) are left out. The list shows a part of the results.
Measured normalized growth values are reported for all entries that follow.
No unit in the answer, please; the number alone is enough.

In: Need normalized growth of N#Cc1ccc2c(c1)N(CCCN1CCC(O)CC1)c1ccccc1S2 , thanks.
Out: 1

In: # query: normalized growth of entry O=C(O)c1cc2cc(Cl)ccc2[nH]1
Out: 1.05

In: Look up normalized growth for this compound: CC(=O)O[C@@H]1CC2C(C)(C)C(=O)[C@@H]3O[C@@H]3[C@]2(C)C2CC[C@]3(C)C(=CC(=O)O[C@H]3c3ccoc3)[C@@]21C (stereo not given in full)
Out: 0.989

In: Which normalized growth value is on record for CN1CCN(C(c2ccccc2)c2ccccc2)CC1 ?
Out: 0.993

In: Report normalized growth for O=c1n(CCCN2CCN(c3cccc(Cl)c3)CC2)nc2ccccn12 please.
Out: 0.941
